tested on: A498 renal; assay: NCI tumour cell line growth inhibition, 48 h
compounds and their reported TGI

Answered examples (2):
NC(N)=NS(=O)(=O)c1ccc(NC(=O)c2cccn3c(=O)c4ccccc4nc23)cc1 : > 100 µM
NS(=O)(=O)c1ccc(C(=O)O)cc1 : > 100 µM

-- ask Requested read-out: TGI. Entry: CC(=O)OC(=C(C#N)C#N)c1nccnc1C(=O)O
-- reply > 100 µM

-- ask Try this compound next: Cc1ccccc1NC(=O)N/C(N)=N/c1nc(C)c(C)s1
-- reply 0.803 µM

-- ask Then this compound: COc1cc(/C=C2/CCCc3ccccc3C2=O)cc(OC)c1OC
-- reply > 75 µM

-- ask Same again, this time with CCCCCCCCCCCCCCCCC(=O)NCC(=O)NCC(=O)NC(Cc1ccccc1)C(=O)Oc1ccc([N+](=O)[O-])cc1 (stereo unspecified)
-- reply > 100 µM

-- ask COc1ccc(Nc2[nH]n(C3=Nc4ccccc4Sc4ccccc43)c(=O)c2C#N)cc1 ?
-- reply 8.01 µM

-- ask Note, next up: Cc1nnc(N2C(=O)C(=Cc3ccc(Cl)cc3)N=C2c2ccc(Cl)cc2)nc1/C=C\c1ccc(N(C)C)cc1
-- reply > 100 µM

-- ask Another compound: Cc1ccc([N+]2=NC(c3ccc([N+](=O)[O-])cc3)=NN(c3ccccc3)C2)cc1
-- reply > 100 µM

-- ask Another compound to check: COc1ccc(OC)c2sc(N3C(=O)/C(=C/c4ccc(SC)cc4)N=C3c3ccccc3)nc12
-- reply > 100 µM

-- ask Now give it for O=C(O)c1[nH]c(=O)[nH]c(=O)c1CN1CCCCC1 too.
-- reply > 100 µM

-- ask Input COc1cccc(-c2cc(C(=O)Nc3ccc(Cl)cc3)nc(N)n2)c1
-- reply > 100 µM

-- ask Next compound: COc1ccc(C(=O)OC2C(OC3C(O)COC(O[C@H]4C[C@H]5[C@@H]6CC=C7C[C@@H](O)CC[C@]7(C)[C@H]6CC[C@]5(C)[C@H]4[C@H](C)C(=O)CCC(C)C)C3OC(=O)C(C)C)OCC(O)C2O)cc1 (stereo partly specified)
-- reply 0.0161 µM

-- ask Try O=C(N/C(=C\NC1=NCCS1)C(=O)N1CSC[C@@H]1C(=O)O)c1ccccc1 next.
-- reply > 100 µM

-- ask Entry to check: COc1cccc([C@@H]2C/C(=N\NC(=O)C(=O)N[C@@H](C)c3ccccc3)c3cc4c(cc3N2)OCO4)c1
-- reply > 100 µM

-- ask Can you check COc1ccc(/C=C(/C(=O)N2CCN(c3ccc(C)cc3)CC2)c2cc(OC)c(OC)c(OC)c2)cc1N next?
-- reply 2.3 µM

-- ask For COc1ccc(-c2cc(=O)c3c(OC)c(O)c(OC)cc3o2)cc1 then?
-- reply 88.5 µM

-- ask And the next one, CCOC(=O)C1Nc2ccc([N+](=O)[O-])cc2[C@H]2OCC[C@@H]12 (stereo partly specified) ?
-- reply > 100 µM

-- ask Next record, please: SCc1ccc(-c2ccc(CS)cc2)cc1
-- reply > 64.3 µM

-- ask Check C=C(C)[C@@H]1CC[C@]2(C(=O)N3CCN(C)CC3)CC[C@]3(C)[C@H](CC[C@@H]4[C@@]5(C)C/C(=C/c6ccncc6)[C@H](O)C(C)(C)[C@@H]5CC[C@]43C)[C@@H]12 too.
-- reply 41.1 µM

-- ask // next record CC/C=C\C[C@H](O)C/C=C1/C(=O)C=C[C@@H]1C/C=C\CCCC(=O)OCCS(=O)(=O)c1ccccc1
-- reply 35.5 µM
